molecular target: Bcl-xL (Homo sapiens)
Sequence (Q07817 whole entry): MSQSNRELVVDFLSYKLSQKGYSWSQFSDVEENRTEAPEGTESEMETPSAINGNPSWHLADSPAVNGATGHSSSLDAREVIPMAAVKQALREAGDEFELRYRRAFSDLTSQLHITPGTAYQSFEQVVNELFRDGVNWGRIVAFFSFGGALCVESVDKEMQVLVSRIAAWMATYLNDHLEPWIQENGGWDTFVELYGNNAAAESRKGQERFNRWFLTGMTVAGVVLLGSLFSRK
Measure: Ki

Asked: Name the reported Ki value associated with the compound `COc1c(CN2O[C@@H](CO)[C@@H]([C@H](C)O)[C@H]2C(=O)N[C@H]2C[C@H]3C[C@@H]([C@@H]2C)C3(C)C)cccc1-c1cc(C(=O)N[C@@H](Cc2ccccc2)CN(C)C)cc(N(C)CC(=O)O)c1`
Given back: < 1000 nM

Asked: Would you kindly repeat that for `COc1c(CN2O[C@@H](CNC(=O)CCN(C)C)[C@@H]([C@H](C)O)[C@H]2C(=O)N[C@H]2C[C@H]3C[C@@H]([C@@H]2C)C3(C)C)cccc1-c1cc(C(=O)N[C@H](CN(C)C)CC(C)(C)C)cc(N(C)C)c1` ?
Given back: < 1000 nM

Asked: Would you kindly repeat that for `CNC(=O)c1cc(-c2cccc(CN3O[C@@H](CN)[C@@H]([C@H](C)O)[C@H]3C(=O)N[C@H]3C[C@H]4C[C@@H]([C@@H]3C)C4(C)C)c2OC)cc(N(C)C)c1` ?
Given back: > 10000 nM

Asked: Would you kindly repeat that for `COc1c(CN2O[C@@H](CO)[C@@H]([C@H](C)O)[C@H]2C(=O)N[C@H]2C[C@H]3CC([C@@H]2C)C3(C)C)ccc(Cl)c1-c1cc(C(=O)N[C@@H](CC(C)C)CN(C)C)cc(N(C)C)c1` ?
Given back: 1000 to 5000 nM

Asked: Would you kindly repeat that for `C[C@@H]1[C@@H](NC(=O)[C@@H]2[C@H]([C@H](C)O)[C@H](CN)ON2Cc2cccc(-c3cc(C(=O)NCCN(C)C)cc(N(C)C)c3)c2F)C[C@H]2C[C@@H]1C2(C)C` ?
Given back: > 10000 nM

Asked: Would you kindly repeat that for `CCNc1cc(C(=O)N[C@@H](CC(C)C)CN(C)C)cc(-c2cccc(CN3O[C@@H](CO)[C@@H]([C@H](C)O)[C@H]3C(=O)N[C@H]3C[C@H]4C[C@@H]([C@@H]3C)C4(C)C)c2OC)c1` ?
Given back: < 1000 nM
